Biological target: AT4 receptor (Ovis aries, UniProt A0ACI6PQ17)
Sequence (A0ACI6PQ17 1-1050): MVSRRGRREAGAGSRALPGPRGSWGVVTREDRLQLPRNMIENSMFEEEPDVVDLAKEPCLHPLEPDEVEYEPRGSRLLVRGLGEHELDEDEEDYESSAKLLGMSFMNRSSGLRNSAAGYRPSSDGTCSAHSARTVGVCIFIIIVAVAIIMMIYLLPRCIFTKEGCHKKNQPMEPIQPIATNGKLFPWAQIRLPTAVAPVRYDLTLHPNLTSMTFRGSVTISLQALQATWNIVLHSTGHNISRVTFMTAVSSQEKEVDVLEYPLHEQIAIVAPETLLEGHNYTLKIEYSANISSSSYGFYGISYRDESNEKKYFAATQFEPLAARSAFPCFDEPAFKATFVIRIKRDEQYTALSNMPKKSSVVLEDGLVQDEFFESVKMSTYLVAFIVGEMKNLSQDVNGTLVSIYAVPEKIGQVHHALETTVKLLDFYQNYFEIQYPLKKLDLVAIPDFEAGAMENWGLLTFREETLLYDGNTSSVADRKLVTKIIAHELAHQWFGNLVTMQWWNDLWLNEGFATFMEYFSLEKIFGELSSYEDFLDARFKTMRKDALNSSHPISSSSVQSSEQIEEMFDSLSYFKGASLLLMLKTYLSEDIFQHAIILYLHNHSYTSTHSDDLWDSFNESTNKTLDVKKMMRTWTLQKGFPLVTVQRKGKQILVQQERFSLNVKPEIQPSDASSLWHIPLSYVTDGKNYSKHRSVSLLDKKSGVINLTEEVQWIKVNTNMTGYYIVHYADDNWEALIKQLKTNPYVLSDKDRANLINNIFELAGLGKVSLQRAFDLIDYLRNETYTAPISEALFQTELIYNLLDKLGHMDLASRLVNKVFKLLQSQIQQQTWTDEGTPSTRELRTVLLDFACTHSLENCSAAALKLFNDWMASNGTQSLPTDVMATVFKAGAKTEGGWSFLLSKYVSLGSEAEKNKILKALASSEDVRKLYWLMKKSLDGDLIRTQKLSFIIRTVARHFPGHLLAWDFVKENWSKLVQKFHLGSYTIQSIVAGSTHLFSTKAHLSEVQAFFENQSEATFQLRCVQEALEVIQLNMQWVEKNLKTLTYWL
Experiment: Competition for [125I]LVV-haemorphin-7 binding to sheep cerebellar cortical membranes
Details: read-out: IC50 for competing for 125I-LVV-haemorphin-7 binding
quantityMeasured: IC50 (nM)
Dear colleague, please return just the value in nM, with no unit written.

Ask: What IC50 value was documented for this sequence, LVVYPWTQRF [LVV-haemorphin-7] ?
Reply: 5.6

###

Biological target: AT4 receptor (Ovis aries, UniProt A0ACI6PQ17)
Experiment: Competition for [125I]LVV-haemorphin-7 binding to sheep cerebellar cortical membranes
Conditions: sheep cerebellar cortical membranes; read-out: IC50 for competing for 125I-LVV-haemorphin-7 binding
quantityMeasured: IC50 (µM)
Report the value in µM with no unit label.

Ask: Requested field: IC50. Item: Cc1cc(Cn2cnc3c2C[C@@H](C(=O)O)N(C(=O)C(c2ccccc2)c2ccccc2)C3)ccc1N(C)C [PD 123319]
Reply: 46
